test system: HeLa Kyoto; assay: solubility in G1/S (NP-40 vs SDS abundance) (log2 ratio); higher = more soluble; conditions: cell cycle stage: G1/S;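 also: HeLa Kyoto cells arrested at G1/S by double thymidine block, proteins quantified by TMT10plex mass spectrometry in mild NP-40 versus SDS extracts, three biological replicates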
Measured endpoint: solubility in G1/S (log2)
Write the value as a bare number.

Example sequences with recorded solubility in G1/S (log2):
MAAEDELQLPRLPELFETGRQLLDEVEVATEPAGSRIVQEKVFKGLDLLEKAAEMLSQLDLFSRNEDLEEIASTDLKYLLVPAFQGALTMKQVNPSKRLDHLQRAREHFINYLTQCHCYHVAEFELPKTMNNSAENHTANSSMAYPSLVAMASQRQAKIQRYKQKKELEHRLSAMKSAVESGQADDERVREYYLLHLQRWIDISLEEIESIDQEIKILRERDSSREASTSNSSRQERPPVKPFILTRNMAQAKVFGAGYPSLPTMTVSDWYEQHRKYGALPDQGIAKAAPEEFRKAAQQQEEQEEKEEEDDEQTLHRAREWDDWKDTHPRGYGNRQNMG [IGBP1] :: 0.454
MALKAEGAALDCFEVTLKCEEGEDEEEAMVVAVIPRPEPMLRVTQQEKTPPPRPSPLEAGSDGCEEPKQQVSWEQEFLVGSSPGGSGRALCMVCGAEIRAPSADTARSHILEQHPHTLDLSPSEKSNILEAWSEGVALLQDVRAEQPSPPNSDSGQDAHPDPDANPDAARMPAEIVVLLDSEDNPSLPKRSRPRGLRPLELPAVPATEPGNKKPRGQRWKEPPGEEPVRKKRGRPMTKNLDPDPEPPSPDSPTETFAAPAEVRHFTDGSFPAGFVLQLFSHTQLRGPDSKDSPKDREVAEGGLPRAESPSPAPPPGLRGTLDLQVIRVRMEEPPAVSLLQDWSRHPQGTKRVGAGDTSDWPTVLSESSTTVAGKPEKGNGV [C11ORF84] :: 0.38

Form: sequence = MGILEKISEIEKEIARTQKNKATEYHLGLLKAKLAKYRAQLLEPSKSASSKGEGFDVMKSGDARVALIGFPSVGKSTFLSLMTSTASEAASYEFTTLTCIPGVIEYKGANIQLLDLPGIIEGAAQGKGRGRQVIAVARTADVIIMMLDATKGEVQRSLLEKELESVGIRLNKHKPNIYFKPKKGGGISFNSTVTLTQCSEKLVQLILHEYKIFNAEVLFREDCSPDEFIDVIVGNRVYMPCLYVYNKIDQISMEEVDRLARKPNSVVISCGMKLNLDYLLEMLWEYLALTCIYTKKRGQRPDFTDAIILRKGASVEHVCHRIHRSLASQFKYALVWGTSTKYSPQRVGLTHTMEHEDVIQIVKK [DRG2] ; solubility in G1/S (log2) = 0.0131

Form: sequence = MATKIDKEACRAAYNLVRDDGSAVIWVTFKYDGSTIVPGEQGAEYQHFIQQCTDDVRLFAFVRFTTGDAMSKRSKFALITWIGENVSGLQRAKTGTDKTLVKEVVQNFAKEFVISDRKELEEDFIKSELKKAGGANYDAQTE [COTL1] ; solubility in G1/S (log2) = 0.108

Form: sequence = MKLHYVAVLTLAILMFLTWLPESLSCNKALCASDVSKCLIQELCQCRPGEGNCSCCKECMLCLGALWDECCDCVGMCNPRNYSDTPPTSKSTVEELHEPIPSLFRALTEGDTQLNWNIVSFPVAEELSHHENLVSFLETVNQPHHQNVSVPSNNVHAPYSSDKEHMCTVVYFDDCMSIHQCKISCESMGASKYRWFHNACCECIGPECIDYGSKTVKCMNCMF [TWSG1] ; solubility in G1/S (log2) = 0.0362

Form: sequence = MAAFGRQVLDWHRLIPLTWACMARQTPHLGEQRRTTASLLRKLTTASNGGVIEELSCVRSNNYVQEPECRRNLVQCLLEKQGTPVVQGSLELERVMSSLLDMGFSNAHINELLSVRRGASLQQLLDIISEFILLGLNPEPVCVVLKKSPQLLKLPIMQMRKRSSYLQKLGLGEGKLKRVLYCCPEIFTMRQQDINDTVRLLKEKCLFTVQQVTKILHSCPSVLREDLGQLEYKFQYAYFRMGIKHPDIVKSEYLQYSLTKIKQRHIYLERLGRYQTPDKKGQTQIPNPLLKDILRVSEAEFLARTACTSVEEFQVFKKLLAREEEESESSTSDDKRASLDEDEDDDDEEDNDEDDNDEDDDDEDDDEAEDNDEDEDDDEEE [MTERF4] ; solubility in G1/S (log2) = 0.434
